System name: α9α10 nAChR (Homo sapiens, UniProt Q9GZZ6+Q9UGM1)
Construct: expressed in transfected cells; host or cells: HEK293T
Sequence (Q9GZZ6 25-450): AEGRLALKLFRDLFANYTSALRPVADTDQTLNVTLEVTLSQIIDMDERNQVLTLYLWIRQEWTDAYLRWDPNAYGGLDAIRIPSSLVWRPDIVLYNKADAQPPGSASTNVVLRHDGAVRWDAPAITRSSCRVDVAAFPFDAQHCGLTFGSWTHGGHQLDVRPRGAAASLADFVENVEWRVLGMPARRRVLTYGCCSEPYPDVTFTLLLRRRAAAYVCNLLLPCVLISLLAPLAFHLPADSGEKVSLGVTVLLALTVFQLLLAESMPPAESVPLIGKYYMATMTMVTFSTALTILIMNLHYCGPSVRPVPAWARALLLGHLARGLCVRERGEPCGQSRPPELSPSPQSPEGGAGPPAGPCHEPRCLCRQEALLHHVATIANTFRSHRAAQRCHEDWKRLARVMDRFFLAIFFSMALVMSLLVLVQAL
Sequence (Q9UGM1 23-479): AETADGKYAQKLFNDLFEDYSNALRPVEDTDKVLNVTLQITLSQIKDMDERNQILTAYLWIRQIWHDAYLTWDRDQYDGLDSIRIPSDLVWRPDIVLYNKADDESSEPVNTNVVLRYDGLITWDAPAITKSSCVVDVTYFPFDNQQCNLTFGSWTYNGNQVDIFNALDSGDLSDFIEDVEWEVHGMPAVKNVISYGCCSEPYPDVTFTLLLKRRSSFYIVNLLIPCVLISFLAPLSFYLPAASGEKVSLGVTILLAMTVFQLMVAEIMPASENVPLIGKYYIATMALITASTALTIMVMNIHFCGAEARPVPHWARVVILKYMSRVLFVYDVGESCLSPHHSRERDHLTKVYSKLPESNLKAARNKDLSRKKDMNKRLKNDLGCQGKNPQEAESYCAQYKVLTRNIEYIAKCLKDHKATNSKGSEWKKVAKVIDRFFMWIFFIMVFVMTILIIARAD
Run description: cell-based
Assay type: cell-based
Test parameters: HEK293T, α9α10 nAChR + CHAT + TMIE; 200 μM ACh; read-out: Antagonist IC50
Text: After three washes, the plates were placed in the FLIPR stage. […] Maximal FLIPR responses to ACh were plotted (FIGS. 3A-C).
Assay readout: IC50 (µM)
State the answer as a number, implicitly in µM.

Record summary for CN1[C@@H]2CC[C@H]1C[C@@H](OC(=O)C(CO)c1ccccc1)C2 (stereo partly shown) : reported IC50 = 340

###

System name: α9α10 nAChR (Homo sapiens, UniProt Q9GZZ6+Q9UGM1)
Construct: expressed in transfected cells; host or cells: HEK293T
Run description: cell-based
Type: cell-based
Test parameters: Antagonist IC50, HEK293T, α9α10 nAChR + TMIE; 200 μM ACh
Excerpt: After three washes, the plates were placed in the FLIPR stage. […] Maximal FLIPR responses to ACh were plotted (FIGS. 3A-C).
Assay readout: IC50 (nM)
A number alone suffices; assume nM.

Entry O=C1C[C@@H]2OCC=C3CN4CC[C@]56c7ccccc7N1[C@H]5[C@H]2[C@H]3C[C@H]46 [Strychnine, strychnine] ; assay system α9α10 nAChR (Homo sapiens, UniProt Q9GZZ6+Q9UGM1); IC50 recorded at 760

###

System name: α9α10 nAChR (Homo sapiens, UniProt Q9GZZ6+Q9UGM1)
Construct: expressed in transfected cells; host or cells: HEK293T
Run description: cell-based
Assay type: cell-based
Test parameters: Antagonist IC50, HEK293T, α9α10 nAChR + CHAT; 200 μM ACh
Excerpt: After three washes, the plates were placed in the FLIPR stage. […] Maximal FLIPR responses to ACh were plotted (FIGS. 3A-C).
Assay readout: IC50
Could you write the number and then its unit?

Per the records, this compound ( O=C1C[C@@H]2OCC=C3CN4CC[C@]56c7ccccc7N1[C@H]5[C@H]2[C@H]3C[C@H]46 [Strychnine, strychnine] ) has IC50 equal to 1.3 µM

###

System name: α9α10 nAChR (Homo sapiens, UniProt Q9GZZ6+Q9UGM1)
Construct: expressed in transfected cells; host or cells: HEK293T
Run description: cell-based
Assay type: cell-based
Test parameters: Antagonist IC50, HEK293T, α9α10 nAChR + CHAT + TMIE; 200 μM ACh
Assay readout: pIC50
Formally, pIC50 is defined as -log10 of the concentration c, with c in mol/L.

Value (pIC50, α9α10 nAChR (Homo sapiens, UniProt Q9GZZ6+Q9UGM1)) for record O=C1C[C@@H]2OCC=C3CN4CC[C@]56c7ccccc7N1[C@H]5[C@H]2[C@H]3C[C@H]46 = 5.74

###

System name: α9α10 nAChR (Homo sapiens, UniProt Q9GZZ6+Q9UGM1)
Construct: expressed in transfected cells; host or cells: HEK293T
Run description: cell-based
Format: cell-based
Test parameters: HEK293T, α9α10 nAChR + CHAT; 200 μM ACh; read-out: Antagonist IC50
Source text: After three washes, the plates were placed in the FLIPR stage. […] Maximal FLIPR responses to ACh were plotted (FIGS. 3A-C).
Assay readout: pIC50
Answer as the number alone; pIC50 is minus log10 of concentration in mol/L.

compound CN1[C@@H]2CC[C@H]1C[C@@H](OC(=O)C(CO)c1ccccc1)C2 (stereo partly shown) , pIC50 observed: 4.91
